- Measured On: T1, orthogonal hCD122 receptor (hoRb), hCD122 with H133D and Y134F (human, UniProt P14784 27-550)
- T1 sequence: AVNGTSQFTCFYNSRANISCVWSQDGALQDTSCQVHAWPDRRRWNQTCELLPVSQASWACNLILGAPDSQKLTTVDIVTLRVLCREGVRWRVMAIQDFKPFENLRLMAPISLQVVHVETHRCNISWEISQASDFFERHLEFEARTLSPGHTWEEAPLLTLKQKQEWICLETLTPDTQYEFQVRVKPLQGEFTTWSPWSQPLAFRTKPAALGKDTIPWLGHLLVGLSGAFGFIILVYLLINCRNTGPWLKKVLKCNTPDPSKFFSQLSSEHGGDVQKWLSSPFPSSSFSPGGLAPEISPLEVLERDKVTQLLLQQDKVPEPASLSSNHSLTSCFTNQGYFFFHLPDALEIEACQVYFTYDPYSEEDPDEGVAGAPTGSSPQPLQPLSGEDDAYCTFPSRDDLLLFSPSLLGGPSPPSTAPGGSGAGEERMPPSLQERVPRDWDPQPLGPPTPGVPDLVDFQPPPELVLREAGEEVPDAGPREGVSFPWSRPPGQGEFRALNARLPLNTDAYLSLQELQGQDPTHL
- Measurement Protocol: cell-based or functional assay
Experimental Endpoint: 3F8 Ortho Proliferation Signal 1:2 (cts/min)

{"columns": ["Binder", "Readout Unit", "Recorded Result"],
 "data": [
  ["SQVLIA (ligand) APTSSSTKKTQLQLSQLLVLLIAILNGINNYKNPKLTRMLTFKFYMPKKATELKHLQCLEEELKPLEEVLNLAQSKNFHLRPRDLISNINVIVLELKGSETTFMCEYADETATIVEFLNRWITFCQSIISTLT", "cts/min", 18600],
  ["L18F, SQVLKA (ligand) APTSSSTKKTQLQLSQLFVLLKAILNGINNYKNPKLTRMLTFKFYMPKKATELKHLQCLEEELKPLEEVLNLAQSKNFHLRPRDLISNINVIVLELKGSETTFMCEYADETATIVEFLNRWITFCQSIISTLT", "cts/min", 49800],
  ["R38W, SQVLKA (ligand) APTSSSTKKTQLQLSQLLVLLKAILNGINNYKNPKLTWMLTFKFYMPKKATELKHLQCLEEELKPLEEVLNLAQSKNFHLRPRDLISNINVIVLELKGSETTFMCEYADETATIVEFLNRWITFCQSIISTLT", "cts/min", 40400],
  ["L18S, SQVLKA (ligand) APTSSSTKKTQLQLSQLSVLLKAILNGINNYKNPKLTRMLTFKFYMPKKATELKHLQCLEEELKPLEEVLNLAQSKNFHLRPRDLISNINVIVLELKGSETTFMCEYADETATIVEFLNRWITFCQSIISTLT", "cts/min", 43300],
  ["T3D, SQVLKA (ligand) APDSSSTKKTQLQLSQLLVLLKAILNGINNYKNPKLTRMLTFKFYMPKKATELKHLQCLEEELKPLEEVLNLAQSKNFHLRPRDLISNINVIVLELKGSETTFMCEYADETATIVEFLNRWITFCQSIISTLT", "cts/min", 33400],
  ["SQVSKA (ligand) APTSSSTKKTQLQLSQLLVSLKAILNGINNYKNPKLTRMLTFKFYMPKKATELKHLQCLEEELKPLEEVLNLAQSKNFHLRPRDLISNINVIVLELKGSETTFMCEYADETATIVEFLNRWITFCQSIISTLT", "cts/min", 47300],
  ["L18W, SQVLKA (ligand) APTSSSTKKTQLQLSQLWVLLKAILNGINNYKNPKLTRMLTFKFYMPKKATELKHLQCLEEELKPLEEVLNLAQSKNFHLRPRDLISNINVIVLELKGSETTFMCEYADETATIVEFLNRWITFCQSIISTLT", "cts/min", 36800],
  ["SQVLTA (ligand) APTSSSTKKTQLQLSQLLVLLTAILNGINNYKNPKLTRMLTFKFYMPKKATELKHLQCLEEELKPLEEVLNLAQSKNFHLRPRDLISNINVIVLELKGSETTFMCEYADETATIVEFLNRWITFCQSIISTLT", "cts/min", 24100],
  ["T113N, SQVLKA (ligand) APTSSSTKKTQLQLSQLLVLLKAILNGINNYKNPKLTRMLTFKFYMPKKATELKHLQCLEEELKPLEEVLNLAQSKNFHLRPRDLISNINVIVLELKGSETTFMCEYADETANIVEFLNRWITFCQSIISTLT", "cts/min", 31600],
  ["ΔH16, S_VLKA (ligand) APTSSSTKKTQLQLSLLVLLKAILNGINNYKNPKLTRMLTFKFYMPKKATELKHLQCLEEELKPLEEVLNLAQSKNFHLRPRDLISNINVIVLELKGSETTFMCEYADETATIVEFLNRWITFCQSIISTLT", "cts/min", 2360],
  ["SQVLYA, E116G (ligand) APTSSSTKKTQLQLSQLLVLLYAILNGINNYKNPKLTRMLTFKFYMPKKATELKHLQCLEEELKPLEEVLNLAQSKNFHLRPRDLISNINVIVLELKGSETTFMCEYADETATIVEFLNRWITFCQSIISTLT", "cts/min", 12500],
  ["Q126M, SQVLKA (ligand) APTSSSTKKTQLQLSQLLVLLKAILNGINNYKNPKLTRMLTFKFYMPKKATELKHLQCLEEELKPLEEVLNLAQSKNFHLRPRDLISNINVIVLELKGSETTFMCEYADETATIVEFLNRWITFCMSIISTLT", "cts/min", 33100],
  ["R38G, SQVLKA (ligand) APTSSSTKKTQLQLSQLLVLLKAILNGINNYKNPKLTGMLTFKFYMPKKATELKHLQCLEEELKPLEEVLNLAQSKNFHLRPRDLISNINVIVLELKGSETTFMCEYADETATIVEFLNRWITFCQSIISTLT", "cts/min", 27200],
  ["SQVLKH (ligand) APTSSSTKKTQLQLSQLLVLLKHILNGINNYKNPKLTRMLTFKFYMPKKATELKHLQCLEEELKPLEEVLNLAQSKNFHLRPRDLISNINVIVLELKGSETTFMCEYADETATIVEFLNRWITFCQSIISTLT", "cts/min", 25700]
]}
